# method-summary: endothelial E-selectin expression blockers – imaging, HUVEC, immunofluorescence, MLSMR starter and 10KST1 sets, primary screen (AID 487);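 for inhibition: signal is fraction of cell area covered by stained E-selectin grains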
# test-conditions: HUVEC TNFalpha-induced E-selectin immunofluorescence imaging, at 2 µM; stronger effect = higher value
Decide using inhibition: a value greater than or equal to -30% is Satisfied, a smaller one is Not satisfied.

>>> label("COC(=O)c1cccc(S(=O)(=O)N2CCN(c3nc4ccccc4s3)CC2)c1")
"Satisfied"

Q: Hi team, for "CCn1c(SCC(=O)Nc2nnc(C)s2)nnc1-c1ccncc1" , is the recorded inhibition at or above -30%?
A: Not satisfied

Q: Hi team, for "COc1cccc2cc(C(=O)Nc3cccnc3N3CCOCC3)c(=O)oc12" , is the recorded inhibition at or above -30%?
A: Not satisfied

Q: Hi team, for Cc1cccc(CS(=O)(=O)Cc2ccc(C(=O)NCC3CCCO3)o2)c1 (stereo unspecified) , is the recorded inhibition at or above -30%?
A: Not satisfied

Q: Hi team, for "CNC(=O)c1c(O)c2cccc3c2n(c1=O)CC3" , is the recorded inhibition at or above -30%?
A: Not satisfied

====

# method-summary: endothelial E-selectin expression blockers – imaging, HUVEC, immunofluorescence, MLSMR starter and 10KST1 sets, primary screen (AID 487);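 for nuclei count: 100% = median nuclei count of all wells on the same plate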
# test-conditions: HUVEC TNFalpha-induced E-selectin immunofluorescence imaging, at 2 µM; measured here: cell number, toxicity
# reported nuclei count; entries follow
Reply with just the number (in %).

Would you please look over these solved cases?
>>> recorded_value("CCOC(=O)C1CCN(C(=O)Nc2ccc(Cl)cc2Cl)CC1")
80.6
>>> recorded_value("COC(=O)C1(C(=O)OC)Sc2ccccc2C1=O")
97.1
>>> recorded_value("COc1ccc2c(c1OC)C(=O)OC2Nn1cncn1 (stereo unspecified)")
108

Q: Please look up its nuclei count: "CCCCc1oc2ccccc2c1C(=O)c1cc(I)c(OCCN(CC)CC)c(I)c1"
A: 136

Q: Please look up its nuclei count: "Brc1ccc(-c2cn3cccnc3n2)cc1"
A: 110

====

# method-summary: endothelial E-selectin expression blockers – imaging, HUVEC, immunofluorescence, MLSMR starter and 10KST1 sets, primary screen (AID 487);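 for inhibition: signal is fraction of cell area covered by stained E-selectin grains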
# test-conditions: HUVEC TNFalpha-induced E-selectin immunofluorescence imaging, at 2 µM; stronger effect = higher value
Decide using inhibition: a value greater than or equal to -20% is true (1), a smaller one is false (0).

>>> label("O=C(CCSc1ccccc1)N1CCN(C(=O)c2ccco2)CC1")
"false (0)"
>>> label("CCOC(=O)c1c(NC(=O)CSc2nnc(-c3ccc(OC)cc3)o2)sc2c1CCC2")
"true (1)"
>>> label("CCOC(=O)c1ccc(NC(=O)CCc2nc(-c3ccc(C)cc3)no2)cc1")
"false (0)"
>>> label("CCN(c1ccccc1)S(=O)(=O)c1ccc(F)cc1C")
"true (1)"
>>> label("O=S(=O)(NCCc1ccccn1)c1cccs1")
"false (0)"
>>> label("CCOC(=O)C1=C(CC)Nc2ccccc2N=C1NC(=O)Nc1ccccc1OC")
"true (1)"
>>> label("CCC(C)OC(=O)n1ccc(C(=O)Nc2nccs2)n1 (stereo unspecified)")
"false (0)"
>>> label("CN(CC(=O)N1CCN(c2ccc(F)cc2)CC1)S(=O)(=O)c1ccc(F)cc1")
"false (0)"
>>> label("CS(=O)(=O)N(CC(=O)N1CCCCCC1)c1ccccc1")
"true (1)"
>>> label("CCOC(=O)C1CCN(C(=O)Nc2ccc(Cl)cc2Cl)CC1")
"true (1)"

Q: Hi team, for CCCC(C)C(=O)Nc1ccc(C(N)=O)cc1 (stereo unspecified) , is the recorded inhibition at or above -20%?
A: true (1)

====

# method-summary: TLR3 IRF3 reporter activation blockers – cell-based, poly I:C stimulus, luciferase, 10K MLSCN set, primary screen (AID 602277)
# test-conditions: HEK293-TLR3 RL24 IRF3 luciferase reporter, at 10 µM, stronger effect = higher value
# reported inhibition; entries follow
Reply with just the number (in %).

Would you please look over these solved cases?
>>> recorded_value("O=C(CNS(=O)(=O)c1ccc(Br)s1)N1CCN(c2ncccn2)CC1")
-10.7
>>> recorded_value("COc1ccc(N2CCN(C(=O)CN3C(=O)C4CC=CCC4C3=O)CC2)cc1 (stereo unspecified)")
-14.6
>>> recorded_value("Cc1ccc(S(=O)(=O)NC(C(=O)OCC(=O)NC2CCS(=O)(=O)C2)C(C)C)cc1 (stereo unspecified)")
18.4

Here's the next entry for you.
Q: Please look up its inhibition: "O=C(COc1ccc2c(c1)OCO2)NC12CC3CC(CC(C3)C1)C2"
A: -35.6

====

# reported inhibition of aggregation; entries follow
# method-summary: reduction of polyQ htt aggregates in cells – imaging, exon1htt(103Q)mCFP cells, high-content imaging, primary screen (AID 483);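 note: compound exposure lasted 3 days before fixation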
# test-conditions: exon1htt(103Q)mCFP cell line, aggregate imaging, at 2 µM; stronger effect = higher value
Where a SMILES comes first, the peptide text is derived from it. The star is where a group is joined. Boc = CC(C)(C)OC(=O)*
Reply with just the number (in %).

Would you please look over these solved cases?
>>> recorded_value("CC(C)Cn1cc(C(=O)NCC2CCCO2)c2c3ccccc3n(C)c2c1=O (stereo not given)")
3.2
>>> recorded_value("COc1ccc(Cl)cc1Nc1nc(C)cc(=O)[nH]1")
10
>>> recorded_value("CC(C)(C)OC(=O)N1CCCC1C(=O)N1CCCC1C(=O)N1CCCC1C(=O)O (stereo not drawn) (Boc-Pro-Pro-Pro-OH; configuration not given here)")
4.5
>>> recorded_value("O=C(NCCc1ccccc1)C1CCN(S(=O)(=O)N2CCC3(CC2)OCCO3)CC1")
-7.7
>>> recorded_value("O=C(Cn1ncc2ccccc21)N1CCN(c2cccc(C(F)(F)F)c2)CC1")
1.3

Here's the next entry for you.
Q: Please look up its inhibition of aggregation: "CC1(C)O[C@@H]2C[C@H]3[C@@H]4CCC5=CC(=O)C=C[C@]5(C)[C@@]4(F)[C@@H](O)C[C@]3(C)[C@]2(C(=O)CO)O1"
A: -6.5

====

# method-summary: blockers of RIG-like receptor reporter activation – cell-based, Sendai virus stimulus, luciferase, 10K MLSCN set, TLR/RLR signaling modifier project, primary screen (AID 602276);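 note: firefly luciferase from ISG56 promoter only with Renilla not read in this screen; 0% = Sendai virus plus DMSO and 100% = medium plus DMSO without virus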
# test-conditions: HEK293 RL24 IRF3 luciferase reporter, at 10 µM, stronger effect = higher value
Decide using inhibition: a value greater than or equal to 10% is YES, a smaller one is NO.

Field: example entries. Status: answers known.
>>> label("COc1ccc(Cl)cc1Nc1nc(C)cc(=O)[nH]1")
"YES"
>>> label("Cc1ccc2nc(SCC(=O)NCc3ccco3)c(C#N)cc2c1")
"NO"
>>> label("CN(CC(=O)Nc1ccccc1Cl)C(=O)COC(=O)CNC(=O)c1ccc(Br)o1")
"YES"
>>> label("O=C(CNS(=O)(=O)c1ccc(Br)s1)N1CCN(c2ncccn2)CC1")
"NO"
>>> label("COC(=O)c1ccccc1NC(=O)c1cc(-c2ccc(OC)c(OC)c2)on1")
"NO"

Q: Hi team, for "COc1cccc(-c2noc(CCC(=O)NC3CCCCC3)n2)c1" , is the recorded inhibition at or above 10%?
A: YES

Q: Hi team, for CCOC(=O)c1sc(C)c2c1NC(C)(c1cccs1)NC2=O (stereo unspecified) , is the recorded inhibition at or above 10%?
A: NO

Q: Hi team, for "CCOc1ccc(OCc2ccc(C(=O)Nc3cccc(C)n3)o2)cc1" , is the recorded inhibition at or above 10%?
A: NO

Q: Hi team, for "Cc1nc2ccccc2c(=O)n1NC(=O)c1ccc(F)cc1Cl" , is the recorded inhibition at or above 10%?
A: YES

Q: Hi team, for "CCN1CCN(Cc2ccc(NC(=O)Nc3ccc(SC)cc3)cc2)CC1" , is the recorded inhibition at or above 10%?
A: NO

Q: Hi team, for Cc1ccc(N2CC(C(=O)N3CCN(C(=O)c4ccco4)CC3)CC2=O)cc1 (stereo unspecified) , is the recorded inhibition at or above 10%?
A: YES

====

# method-summary: reduction of polyQ htt aggregates in cells – imaging, exon1htt(103Q)mCFP cells, high-content imaging, primary screen (AID 483);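 note: compound exposure lasted 3 days before fixation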;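 for nuclei count: percent of the per-plate median nuclei count of sample wells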
# test-conditions: exon1htt(103Q)mCFP cell line, aggregate imaging, at 2 µM; measured here: cell count, toxicity
# reported nuclei count; entries follow
Reply with just the number (in %).

Would you please look over these solved cases?
>>> recorded_value("O=C(C1CCC1)N1CCc2cc(S(=O)(=O)Nc3ccc4c(c3)OCO4)ccc21")
92
>>> recorded_value("c1ccc2c(-c3nc(C4CCCCC4)no3)cc(-c3ccncc3)nc2c1")
73.3
>>> recorded_value("Cc1ccc(-c2cc(C(F)F)nc(NCc3cccnc3)n2)cc1")
81.9

Q: Please look up its nuclei count: "Cc1ccccc1NC(=O)c1ccc(NC(=O)c2ccco2)cc1"
A: 116

Q: Please look up its nuclei count: "CCCn1c(N2CCN(CC(=O)NCc3cccs3)CC2)nc2ccccc21"
A: 110

Q: Please look up its nuclei count: "CN1CCN(C(=O)CN(Cc2ccc(Cl)cc2)S(C)(=O)=O)CC1"
A: 92
